Target: T1, recombinant human FGFR3 IIIb Fc fusion protein (human, UniProt P22607-2 23-377, limits assumed)
T1 construct: Bought reagent; the IIIb splice isoform is meant; also called rhFGFR3 IIIb Fc; hFGFR3 IIIb; not shown: Fc fragment (removable by Factor Xa, detected with anti-human IgG)
T1 sequence (looked up): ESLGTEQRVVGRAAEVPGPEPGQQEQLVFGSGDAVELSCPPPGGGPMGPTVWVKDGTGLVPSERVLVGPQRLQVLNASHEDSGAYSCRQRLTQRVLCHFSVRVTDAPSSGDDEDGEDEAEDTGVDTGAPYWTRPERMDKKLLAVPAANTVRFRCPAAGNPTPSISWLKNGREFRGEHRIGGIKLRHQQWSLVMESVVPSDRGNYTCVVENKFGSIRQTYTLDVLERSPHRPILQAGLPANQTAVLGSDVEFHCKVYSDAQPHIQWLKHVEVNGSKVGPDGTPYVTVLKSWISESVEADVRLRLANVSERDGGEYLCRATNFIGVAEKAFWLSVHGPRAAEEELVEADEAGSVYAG
Test: ECL competition assay: inhibition of rhFGFR3 IIIb Fc binding to coated FGF1 (competitor FGF1)
assayReadout: Maximum Neutralization (%)
Please state the figure in %; there is no need to write the unit.

Some solved entries appear below for comparison.
[[record]]
binder = "anti-FGFR3 monoclonal antibody 2G4 (antibody, mouse IgG1, kappa, V domains shown, Murine IgG1/kappa from hybridoma; also called 2G4 IgG1; murine antibody 2G4) VH: EIQLQQSGPELVKPGASVKVSCKASGYAFTSYNMYWVKQSHGKSLEWIGYIDPYNGGTRDNQKFKGKATLTVDKSSSTAYMHLNSLTSEDSAVYYCAREGGNYEAWFAYWGQGTLVTVSA VL: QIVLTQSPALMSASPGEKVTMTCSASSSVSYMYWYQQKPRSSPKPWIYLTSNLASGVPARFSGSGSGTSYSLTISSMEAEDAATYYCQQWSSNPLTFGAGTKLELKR"
quantityunit = "%"
valuereported = 64.9

[[record]]
binder = "7D12 Fab (Fab, V domains shown, not shown: a dimerising Fc or GST, preparation not described; also called anti-FGFR3 Fab fragment 7D12) VH: EIQLQQSGPELVKPGASVKVSCKASGYAFTSYNMYWVKQSHGKSLEWIGYIDPYNGGTRYNQKFKGKATLTVDKSSSTAYMHLNSLTSEDSAVYYCAREGGNYEAWFAYWGQGTLVTVSA VL: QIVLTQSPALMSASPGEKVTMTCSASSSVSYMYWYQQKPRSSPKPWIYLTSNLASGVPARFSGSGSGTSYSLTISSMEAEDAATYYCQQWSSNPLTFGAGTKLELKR"
quantityunit = "%"
valuereported = 88.8


Could you now consider this next binder?
Problem: Name the reported Maximum Neutralization (%) value associated with the binder anti-FGFR3 monoclonal antibody 7D12 (antibody, mouse IgG1, kappa, V domains shown, Murine IgG1/kappa from a separate hybridoma; also called 7D12 IgG1; 4E7 (7D12)) VH: EIQLQQSGPELVKPGASVKVSCKASGYAFTSYNMYWVKQSHGKSLEWIGYIDPYNGGTRYNQKFKGKATLTVDKSSSTAYMHLNSLTSEDSAVYYCAREGGNYEAWFAYWGQGTLVTVSA VL: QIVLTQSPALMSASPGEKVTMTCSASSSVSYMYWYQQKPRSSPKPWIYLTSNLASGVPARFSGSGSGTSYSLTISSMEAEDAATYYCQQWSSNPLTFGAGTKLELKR
Result: 93.9
